Numbers sourced from patent US20090054454A1.

# System tested: Human 5-HT Transporter (Homo sapiens, UniProt P31645)
# Sequence (P31645 whole entry): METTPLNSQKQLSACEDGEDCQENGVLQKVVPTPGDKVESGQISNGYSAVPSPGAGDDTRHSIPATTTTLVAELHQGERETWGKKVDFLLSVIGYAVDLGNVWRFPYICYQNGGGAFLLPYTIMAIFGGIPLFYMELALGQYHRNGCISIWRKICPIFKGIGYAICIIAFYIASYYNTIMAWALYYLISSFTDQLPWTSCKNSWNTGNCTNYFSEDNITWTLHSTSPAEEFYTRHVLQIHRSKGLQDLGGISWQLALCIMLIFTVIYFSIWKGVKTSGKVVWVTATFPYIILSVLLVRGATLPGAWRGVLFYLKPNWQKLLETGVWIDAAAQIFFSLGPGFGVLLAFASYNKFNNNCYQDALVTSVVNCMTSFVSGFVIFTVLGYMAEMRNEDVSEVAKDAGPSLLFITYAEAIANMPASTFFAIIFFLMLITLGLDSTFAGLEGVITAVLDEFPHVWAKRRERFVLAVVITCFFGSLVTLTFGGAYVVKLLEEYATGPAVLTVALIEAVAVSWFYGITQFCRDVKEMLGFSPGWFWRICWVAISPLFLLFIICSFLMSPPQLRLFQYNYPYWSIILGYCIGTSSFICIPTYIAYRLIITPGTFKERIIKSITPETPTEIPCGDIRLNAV
# Assay summary: Inhibition of 3H-5-HT Uptake by Cells Possessing the Human 5-HT Transporter (HC 5HT Transporter), Jar cells
# Conditions: HC-5HTC Transporter Ki (nM), Jar cells treated with staurosporine
Label 1.0 when Ki is strictly below 200 nM; otherwise label 0.0.

compound=COc1ccc2occ([C@H]3CC[C@@H](N4CCN(c5cc(F)cc6cccnc56)CC4)CC3)c2c1 class_label=0.0
compound=Clc1cc(N2CCN([C@H]3CC[C@@H](c4csc5ccccc54)CC3)CC2)c2ncccc2c1 class_label=0.0
compound=COc1cccc2c1occ2[C@H]1CC[C@H](N2CCN(c3ccc(Cl)c4cccnc34)CC2)CC1 class_label=1.0
compound=COc1ccc2occ(CCN3CCN(c4cc(C)cc5cccnc45)CC3)c2c1 class_label=1.0
compound=Fc1ccc(N2CCN([C@H]3CC[C@@H](c4coc5ccccc54)CC3)CC2)c2ncccc12 class_label=0.0
compound=COc1ccc2occ(CCN3CCN(c4cccc5cccnc45)CC3)c2c1 class_label=1.0
compound=COc1cc(N2CCN(CCc3coc4ccccc34)CC2)c2ncccc2c1 class_label=0.0
compound="COc1cccc2c(C(C)CN3CCN(c4cc(Cl)cc5cccnc45)CC3)coc12 (centres unmarked)" class_label=1.0
compound=COc1cc(N2CCN([C@H]3CC[C@H](c4csc5ccc(F)cc54)CC3)CC2)c2ncccc2c1 class_label=1.0
compound="CC(CN1CCN(c2cccc3cccnc23)CC1)c1coc2ccccc12 (centres unmarked)" class_label=1.0
compound=Fc1ccc2scc([C@H]3CC[C@@H](N4CCN(c5ccc(Cl)c6cccnc56)CC4)CC3)c2c1 class_label=0.0
compound=COc1ccc2c(CCN3CCN(c4cccc5cccnc45)CC3)coc2c1 class_label=1.0
compound=COc1cccc2c1occ2[C@H]1CC[C@H](N2CCN(c3cc(F)cc4cccnc34)CC2)CC1 class_label=0.0
compound=Clc1cc(N2CCN(CCc3coc4ccccc34)CC2)c2ncccc2c1 class_label=0.0
compound="CC(CN1CCN(c2cc(Cl)cc3cccnc23)CC1)c1coc2ccccc12 (centres unmarked)" class_label=1.0
compound=Clc1cc(N2CCN(CCc3coc4ccc(Cl)cc34)CC2)c2ncccc2c1 class_label=0.0
compound=Fc1cc(N2CCN([C@H]3CC[C@H](c4coc5ccccc54)CC3)CC2)c2ncccc2c1 class_label=0.0
